- measured-on: T1, human full length DLL1 expressed on CHO-K1 cells (human, UniProt O00548 18-723)
- T1 construct: whole, on cells; also called CHO-K1-hDLL1
- T1 sequence (looked up): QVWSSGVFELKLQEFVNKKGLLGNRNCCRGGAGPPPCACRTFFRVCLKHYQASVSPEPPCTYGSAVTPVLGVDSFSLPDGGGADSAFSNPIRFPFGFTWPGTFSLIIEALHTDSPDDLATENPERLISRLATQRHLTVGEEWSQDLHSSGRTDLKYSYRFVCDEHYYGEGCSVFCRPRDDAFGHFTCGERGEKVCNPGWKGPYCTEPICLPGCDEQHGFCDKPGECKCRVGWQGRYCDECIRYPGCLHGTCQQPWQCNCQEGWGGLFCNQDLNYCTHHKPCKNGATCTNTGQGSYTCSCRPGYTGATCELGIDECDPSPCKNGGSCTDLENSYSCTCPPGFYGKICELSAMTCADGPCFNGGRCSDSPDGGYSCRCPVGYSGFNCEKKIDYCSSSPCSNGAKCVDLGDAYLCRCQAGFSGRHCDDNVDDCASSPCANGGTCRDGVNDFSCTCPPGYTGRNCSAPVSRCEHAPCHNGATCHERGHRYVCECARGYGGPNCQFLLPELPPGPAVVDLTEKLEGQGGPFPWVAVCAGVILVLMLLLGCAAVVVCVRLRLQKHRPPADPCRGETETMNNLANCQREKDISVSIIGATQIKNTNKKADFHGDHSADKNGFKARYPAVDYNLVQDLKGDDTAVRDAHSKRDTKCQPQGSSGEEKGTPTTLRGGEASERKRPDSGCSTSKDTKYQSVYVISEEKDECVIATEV
- test: flow cytometry on CHO-K1-hDLL1 cells
reported-property: binding result

{"binder": "362H3D3-hIgG1 chimeric antibody (antibody, V domains shown) VH: EVQLQQSGPELLKPGASVKISCKASGYTFTDYTMHWVKQSHGRSLEWIGGIHPNYGGTSYNEKFKDKATLTVDKSSSTAYMEFRSLTSEDSAVYYCARWGYYGGSYWYFDVWGTGTTVTVSS VL: DIQMTQSPASLSVSVGETVTITCRASENIYSNLAWYQQKQGKSPQLLVYAATNLADGVPSRFSGSGSGTQYSLKINSLQSEDFGSYYCQHFWGTPYTFGGGTKLEIKR", "binding result": "binds"}
{"binder": "310P3C5-z15 humanized antibody (antibody, human IgG1, kappa, V domains shown, human IgG1) VH: QVQLVQSGAEVKKPGASVKVSCKASGYTFTDFYMNWVKQAPGQGLEWIGDANPNNGGTTHNPRFKGRATLTVDKSASTAYMELRSLRSEDTAVYYCARGGLPGDFDYWGQGTTVTVSS VL: DIQMTQSPSSLSASVGDRVTITCKASEDIYNRLAWYQQKPGKAPKLLISGVTSLETGVPSRFSGSGSGTDFTFTISSLQPEDIATYYCQQYWSFPWTFGGGTKVEIKR", "binding result": "no binding"}
{"binder": "310P3C5-z14 humanized antibody (antibody, human IgG1, kappa, V domains shown, HU-VH2 with HU-VL1-1; human IgG1) VH: QVQLVQSGAEVKKPGASVKVSCKASGYTFTDFYMNWVKQAPGQGLEWIGDANPNNGGTTHNPRFKGRATLTVDKSASTAYMELRSLRSEDTAVYYCARGGLPGDFDYWGQGTTVTVSS VL: DIQMTQSPSSVSASVGDRVTITCKASEDIYNRLAWYQQKPGKAPKLLIYGVTSLETGVPSRFSGSGSGTDFTLTISSLQPEDFATYYCQQYWSFPWTFGGGTKVEIKR", "binding result": "no binding"}
{"binder": "310P3C5-z4 humanized antibody (antibody, human IgG1, kappa, V domains shown, HU-VH1-4 with HU-VL1-1; human IgG1) VH: QVQLVQSGAEVKKPGASVKVSCKASGYTFTDFYMNWVRQAPGQGLEWIGDANPNNGGTTHNPRFKGQATLTVDKSTSTAYMELRSLRSDDTAVYYCARGGLPGDFDYWGQGTTVTVSS VL: DIQMTQSPSSVSASVGDRVTITCKASEDIYNRLAWYQQKPGKAPKLLIYGVTSLETGVPSRFSGSGSGTDFTLTISSLQPEDFATYYCQQYWSFPWTFGGGTKVEIKR", "binding result": "no binding"}
{"binder": "310P3C5-z12 humanized antibody (antibody, human IgG1, kappa, V domains shown, HU-VH1-4 with HU-VL1-3; human IgG1) VH: QVQLVQSGAEVKKPGASVKVSCKASGYTFTDFYMNWVRQAPGQGLEWIGDANPNNGGTTHNPRFKGQATLTVDKSTSTAYMELRSLRSDDTAVYYCARGGLPGDFDYWGQGTTVTVSS VL: DIQMTQSPSSVSASVGDRVTITCKASEDIYNRLAWYQQKPGKAPKLLISGVTSLETGVPSRFSGSGSGKDFTLTISSLQPEDFATYYCQQYWSFPWTFGGGTKVEIKR", "binding result": "no binding"}

(Q) Name the recorded binding result of the item 310P3C5-z8 humanized antibody (antibody, human IgG1, kappa, V domains shown, HU-VH1-4 with HU-VL1-2; human IgG1) VH: QVQLVQSGAEVKKPGASVKVSCKASGYTFTDFYMNWVRQAPGQGLEWIGDANPNNGGTTHNPRFKGQATLTVDKSTSTAYMELRSLRSDDTAVYYCARGGLPGDFDYWGQGTTVTVSS VL: DIQMTQSPSSVSASVGDRVTITCKASEDIYNRLAWYQQKPGKAPKLLISGVTSLETGVPSRFSGSGSGTDFTLTISSLQPEDFATYYCQQYWSFPWTFGGGTKVEIKR in your answer.
(A) no binding
